Measured pIC50 by item
Tested on: blood cancer cell lines (e.g. HL-60, Jurkat, Raji, Ramos, Daudi, MOLT-4)
assay-notes: Cell based assay, cell viability (CellTiter-Glo), blood cancer cell lines
condition-details: Homo sapiens, blood cancer cell line U-937, 72 hours, read-out: IC50, U-937
pIC50: −log10 of the molar value.

Here's what some known entries look like.
>>> result("CC(=O)c1c([S+]([O-])Cc2ccc(N)nc2)[nH]c2c(Br)ccc(Cl)c2c1=O (stereo not drawn) [Compound 100]")
"< 5.70"
>>> result("CC(=O)c1c([S+]([O-])Cc2ccc(NS(C)(=O)=O)cc2)[nH]c2c(Br)ccc(Cl)c2c1=O (stereo not drawn) [Compound 103]")
"< 5.70"

Next up:
For CC(=O)c1c(SCc2cc(Cl)ccc2Cl)[nH]c2c(Br)ccc(Cl)c2c1=O [Compound 43] the compound record lists pIC50 as < 5.70

Data provenance is patent US11464770B2.
